Tested system: UniProt:P43115
Sequence (P43115 whole entry): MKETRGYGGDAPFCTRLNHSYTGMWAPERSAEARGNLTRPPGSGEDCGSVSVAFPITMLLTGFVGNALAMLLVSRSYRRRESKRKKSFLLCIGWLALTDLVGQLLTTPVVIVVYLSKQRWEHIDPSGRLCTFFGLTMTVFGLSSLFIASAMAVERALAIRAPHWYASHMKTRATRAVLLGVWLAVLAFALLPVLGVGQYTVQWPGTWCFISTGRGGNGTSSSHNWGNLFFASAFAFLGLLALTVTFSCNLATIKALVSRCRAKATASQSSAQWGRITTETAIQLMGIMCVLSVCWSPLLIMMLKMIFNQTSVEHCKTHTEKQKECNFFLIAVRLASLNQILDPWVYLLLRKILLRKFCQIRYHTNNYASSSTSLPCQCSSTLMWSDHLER
Test summary: Cellular in vitro assay for determining EP3 receptor activity (human EP3 cell line, sulprostone-stimulated calcium luminescence)
Condition info: CHO cells expressing human EP3 and mitochondrial Clytin; antagonist mode, sulprostone at EC50; read-out: EP3 CHO mtCLY ANTAG IC50
Under this convention, Y denotes IC50 strictly below 2 nM and N denotes IC50 at or above 2 nM.

>>> label_class("Cc1ccc(-c2cn3nc(C(=O)NC4(c5ccc(F)cc5)CCN(C)C4)cc3c(=O)[nH]2)cc1C (single isomer, unassigned) [6-363]")
"N"
>>> label_class("Cc1ccc(-c2cn3nc(C(=O)N[C@@H](C)C4CC4)c(C4CC4)c3c(=O)[nH]2)cc1Cl [6-254]")
"N"
>>> label_class("Cc1cccc2ncc(-c3cn4nc(C(=O)Nc5ccnn5C(C)C)c(C(C)C)c4c(=O)[nH]3)cc12 [Example 4-15]")
"N"
>>> label_class("Cc1cc(-c2cn3nc(C(=O)NC(c4ccc(F)cc4)C4(O)CC4)c(C(F)(F)F)c3c(=O)[nH]2)ccc1Cl (racemic) [6-210]")
"Y"
>>> label_class("CCn1cc(CNC(=O)c2nn3cc(-c4ccc5ccccc5c4)[nH]c(=O)c3c2Cl)c(C)n1 [6-10]")
"Y"
>>> label_class("Cc1ccc(-c2cn3nc(C(=O)N[C@@H](C)C4CC4)c(C4CC4)c3c(=O)[nH]2)cc1F [6-380]")
"Y"

stdin: Strictly below 2 nM in IC50? Cc1cc(-c2cn3nc(C(=O)NC4(c5ccc(F)cc5)CN(CC(F)(F)F)C4)c(C4CC4)c3c(=O)[nH]2)ccc1Cl [6-344]
stdout: Y

stdin: Next compound: Cc1cccc2ncc(-c3cn4nc(C(=O)NC(C)c5ccc(S(N)(=O)=O)cc5)c(C(C)C)c4c(=O)[nH]3)cc12 (centres unmarked) [Example 4-53]
stdout: Y

stdin: Next compound: COc1ccccc1C(C)NC(=O)c1nn2cc(-c3cnc4cccc(C)c4c3)[nH]c(=O)c2c1C(C)C (centres unmarked) [Example 4-4]
stdout: N

stdin: Next compound: Cc1ccc(-c2cn3nc(C(=O)N[C@@H](c4ccc(F)cc4)C(F)(F)CO)c(C)c3c(=O)[nH]2)cc1F [6-412]
stdout: Y

stdin: Next compound: C[C@@H](NC(=O)c1nn2cc(-c3ccc4ccccc4c3)[nH]c(=O)c2c1C#N)c1ccc(F)cc1 [6-68]
stdout: N

stdin: Next compound: N#Cc1c(C(=O)NC2Cc3ccccc3C2)nn2cc(-c3ccc4ccccc4c3)[nH]c(=O)c12 [Example 3-55]
stdout: N

stdin: Next compound: COC[C@@H](NC(=O)c1nn2cc(-c3ccc4c(c3)ncn4C)[nH]c(=O)c2c1C1CC1)c1ccccc1 [6-600]
stdout: N

stdin: Next compound: C[C@@H](NC(=O)c1cc2c(=O)[nH]c(-c3ccc4ccccc4c3)cn2n1)c1ccc(F)cc1 [6-78]
stdout: N

stdin: Next compound: Cc1cccc2ncc(-c3cn4nc(C(=O)NCc5cc[nH]n5)c(C(C)C)c4c(=O)[nH]3)cc12 [Example 4-14]
stdout: N

stdin: Next compound: Cc1cc(-c2cn3nc(C(=O)NCCC(O)C(F)(F)F)c(C4CC4)c3c(=O)[nH]2)ccc1Cl (single isomer, unassigned) [6-311]
stdout: Y

stdin: Next compound: Cc1ccc(-c2cn3nc(C(=O)NC4(C)CCC4)c(C(F)(F)F)c3c(=O)[nH]2)cc1F [6-146]
stdout: N

stdin: Next compound: C[C@H](NC(=O)c1cc2c(=O)[nH]c(-c3ccc4ccccc4c3)cn2n1)c1cccc2ccccc12 [Example 2-6]
stdout: N

Hello, the source for this data is patent US20220324865A1, in case you need it.
